Attribution: patent US20230233569A1

target: KRAS G12V (Homo sapiens, UniProt P01116+P62937, G12V); assay: Disruption of BRAF RBD interaction with Ras (FRET / MOA assay, with Cyclophilin A); assay type: biochemical; conditions: KRAS G12V; read-out: KRAS G12V FRET data IC50
Sequence (P01116 1-169 isoform P01116-2 G12V limits assumed): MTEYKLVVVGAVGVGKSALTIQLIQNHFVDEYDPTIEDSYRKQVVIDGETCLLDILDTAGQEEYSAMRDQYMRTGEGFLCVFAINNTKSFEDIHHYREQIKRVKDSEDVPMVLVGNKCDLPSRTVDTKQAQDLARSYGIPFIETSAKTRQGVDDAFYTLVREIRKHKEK
Sequence (P62937 whole entry): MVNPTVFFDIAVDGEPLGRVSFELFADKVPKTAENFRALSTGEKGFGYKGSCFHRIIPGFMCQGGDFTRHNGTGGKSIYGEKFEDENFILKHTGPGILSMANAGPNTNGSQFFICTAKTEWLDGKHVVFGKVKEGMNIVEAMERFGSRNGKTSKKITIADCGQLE
PARAMETER_MEASURED: IC50

The following molecules have reported results that may help.
| MOLECULE | IC50 |
| --- | --- |
| CCn1c(-c2cccnc2[C@H](C)OC)c2c3cc(ccc31)-c1cccc(c1)C[C@H](NC(=O)[C@H](C(C)C)N(C)C(=O)[C@H]1CCN(C(=O)C(C)(C)N(C)C)C1)C(=O)N1CCC[C@H](N1)C(=O)OCC(C)(C)C2 | 1000 to 10000 nM |
| CCn1c(-c2cccnc2[C@H](C)OC)c2c3cc(ccc31)-c1csc(n1)C[C@H](NC(=O)[C@H](C(C)C)N(C)C(=O)N1CCCC13COC3)C(=O)N1CCC[C@H](N1)C(=O)OCC(C)(C)C2 (atropisomer, axis not shown) | 100 to 1000 nM |

Now let's try a different one.
Ask | Item under review: `CCn1c(-c2cccnc2[C@H](C)OC)c2c3cc(ccc31)-c1cc(O)cc(c1)C[C@H](NC(=O)[C@H](C(C)C)N(C)C(=O)[C@H]1CCN(C(=O)[C@H]3CCCN3)C1)C(=O)N1CCC[C@H](N1)C(=O)OCC(C)(C)C2` . Reported IC50?
Reply | 10 to 100 nM

---

test system: AsPC-1 (K-Ras G12D); assay: CellTiter-Glo cell viability assay; format: cell-based; conditions: Homo sapiens, ASPC1, 120 h, read-out: AsPC-1 Cell Viability assay data IC50, K-Ras G12D, 5-day treatment
The entries below come with measured IC50 values attached.

The following compounds have reported results that may help.
| COMPOUND | VALUE |
| --- | --- |
| CCn1c(-c2cnccc2COC)c2c3cc(ccc31)-c1cc(O)cc(c1)C[C@H](NC(=O)[C@H](C(C)C)N(C)C(=O)CN(C)C(=O)[C@H]1CN1Cc1ccccc1)C(=O)N1CCC[C@H](N1)C(=O)OCC(C)(C)C2 (stereo partly shown) | 1 to 10 µM |
| CCn1c(-c2cccnc2[C@H](C)OC)c2c3cc(ccc31)-c1cc(O)cc(c1)C[C@H](NC(=O)[C@H](C(C)C)N(C)C(=O)[C@H](C)N(C)C(=O)[C@H]1CN1)C(=O)N1CCC[C@H](N1)C(=O)OCC(C)(C)C2 | 0.1 to 1 µM |
| CCn1c(-c2cccnc2[C@H](C)OC)c2c3cc(ccc31)-c1cc(O)cc(c1)C[C@H](NC(=O)[C@H](C(C)C)N(C)C(=O)CN(C)C(=O)[C@H]1CN1CCCN1CCCC1=O)C(=O)N1CCC[C@H](N1)C(=O)OCC(C)(C)C2 (stereo partly shown) | 1 to 10 µM |
| CCn1c(-c2cccnc2[C@H](C)OC)c2c3cc(ccc31)-c1cc(O)cc(c1)C[C@H](NC(=O)[C@H](C(C)C)N(C)C(=O)CN(C)C(=O)[C@H]1CN1CC(=O)N(C)C)C(=O)N1CCC[C@H](N1)C(=O)OCC(C)(C)C2 (stereo partly shown) | 0.1 to 1 µM |
| CCn1c(-c2cccnc2[C@H](C)OC)c2c3cc(ccc31)-c1cc(O)cc(c1)C[C@H](NC(=O)[C@H](C(C)C)N(C)C(=O)CN(C)C(=O)[C@@H]1CN1CCOC)C(=O)N1CCC[C@H](N1)C(=O)OCC(C)(C)C2 (stereo partly shown) | 0.1 to 1 µM |

Ask | Item under review: `CCn1c(-c2cccnc2[C@H](C)OC)c2c3cc(ccc31)-c1cc(O)cc(c1)C[C@H](NC(=O)[C@H](C(C)C)N(C)C(=O)CN(C)C(=O)[C@H]1N[C@H]1C(F)(F)F)C(=O)N1CCC[C@H](N1)C(=O)OCC(C)(C)C2` . Reported IC50?
Reply | 0.1 to 1 µM

Ask | Ok, now `CCn1c(-c2cnccc2COC)c2c3cc(ccc31)-c1cc(O)cc(c1)C[C@H](NC(=O)[C@H](C(C)C)N(C)C(=O)CN(C)C(=O)[C@@H]1N[C@@H]1C1CC1)C(=O)N1CCC[C@H](N1)C(=O)OCC(C)(C)C2`
Reply | 0.1 to 1 µM

---

target: NRAS G12C (Homo sapiens, UniProt P01111+P62937, G12C); assay: Disruption of BRAF RBD interaction with Ras (FRET / MOA assay, with Cyclophilin A); assay type: biochemical; conditions: NRAS G12C; read-out: NRAS G12C FRET data IC50
Sequence (P01111 whole entry G12C): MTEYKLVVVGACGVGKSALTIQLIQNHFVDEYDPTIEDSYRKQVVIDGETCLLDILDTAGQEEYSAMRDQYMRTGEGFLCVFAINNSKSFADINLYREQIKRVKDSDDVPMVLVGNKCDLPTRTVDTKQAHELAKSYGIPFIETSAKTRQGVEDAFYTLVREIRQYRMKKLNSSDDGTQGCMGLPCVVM
Sequence (P62937 whole entry): as the sequence (P62937 whole entry) above
PARAMETER_MEASURED: IC50

| COMPOUND | IC50 |
| --- | --- |
| CCn1c(-c2cccnc2COC)c2c3cc(ccc31)-c1cc(O)cc(c1)C[C@H](NC(=O)[C@H](C(C)C)N(C)C(=O)[C@H]1CCN(C(=O)C#CC(C)(C)N(C)C)C1)C(=O)N1CCC[C@H](N1)C(=O)OCC(C)(C)C2 | < 10 nM |
| CCn1c(-c2cccnc2[C@H](C)OC)c2c3cc(ccc31)-c1csc(n1)C[C@H](NC(=O)[C@H](C(C)C)N(C)C(=O)N1CC([C@H](C)CO)C1)C(=O)N1CCC[C@H](N1)C(=O)OCC(C)(C)C2 (atropisomer, axis not shown) | 10 to 100 nM |
| CCn1c(-c2cccnc2[C@H](C)OC)c2c3cc(ccc31)-c1csc(n1)C[C@H](NC(=O)[C@H](C(C)C)N(C)C(=O)N(C)C1(COC)COC1)C(=O)N1CCC[C@H](N1)C(=O)OCC(C)(C)C2 | 100 to 1000 nM |
| CCn1c(-c2cccnc2[C@H](C)OC)c2c3cc(ccc31)-c1cc(O)cc(c1)C[C@H](NC(=O)[C@H](C(C)C)N(C)C(=O)[C@@H]1OCC[C@@H]1c1cccnc1)C(=O)N1CCC[C@H](N1)C(=O)OCC(C)(C)C2 (atropisomer, axis not shown) | 10 to 100 nM |
| CCn1c(-c2cccnc2[C@H](C)OC)c2c3cc(ccc31)-c1csc(n1)C[C@H](NC(=O)[C@H](C(C)C)N(C)C(=O)N1CC3(CCN(C)CC3)C1)C(=O)N1CCC[C@H](N1)C(=O)OCC(C)(C)C2 | 100 to 1000 nM |

Ask | Item under review: CO[C@@H](C)c1ncccc1-c1c2c3cc(ccc3n1CC(F)(F)F)-c1csc(n1)C[C@H](NC(=O)[C@H](C(C)C)N(C)C(=O)N1CCC3(CC1)CN(C(=O)/C=C/CF)C3)C(=O)N1CCCC(N1)C(=O)OCC(C)(C)C2 (some centres unmarked) . Reported IC50?
Reply | 10 to 100 nM

Ask | Ok, now CCn1c(-c2cccnc2[C@H](C)OC)c2c3cc(ccc31)-c1cc(O)cc(c1)C[C@H](NC(=O)[C@H](C(C)C)N(C)C(=O)C1CCC(C3CCCO3)O1)C(=O)N1CCC[C@H](N1)C(=O)OCC(C)(C)C2 (some centres unmarked)
Reply | 10 to 100 nM

Ask | Ok, now CCn1c(-c2cccnc2[C@H](C)OC)c2c3cc(ccc31)-c1csc(n1)C[C@H](NC(=O)[C@H](C(C)C)N(C)C(=O)N1CC3(CC(N(C)CCOC)C3)C1)C(=O)N1CCC[C@H](N1)C(=O)OCC(C)(C)C2 (atropisomer, axis not shown)
Reply | 100 to 1000 nM

Ask | Ok, now `CCn1c(-c2cccnc2[C@H](C)OC)c2c3cc(ccc31)-c1cc(O)cc(c1)C[C@H](NC(=O)[C@H](C(C)C)N(C)C(=O)N1CC(N(C)C)C1)C(=O)N1CCC[C@H](N1)C(=O)OCC(C)(C)C2`
Reply | 100 to 1000 nM

Ask | Ok, now `CCn1c(-c2cccnc2[C@H](C)OC)c2c3cc(ccc31)-c1cc(O)cc(c1)C[C@H](NC(=O)[C@H](C(C)C)N(C)C(=O)[C@H]1CCN(C(=O)[C@@H]3CCCN3C)C1)C(=O)N1CCC[C@H](N1)C(=O)OCC(C)(C)C2`
Reply | 10 to 100 nM

Ask | Ok, now CCn1c(-c2cccnc2[C@H](C)OC)c2c3cc(ccc31)-c1cc(O)cc(c1)C[C@H](NC(=O)[C@H](C(C)C)N(C)C(=O)C1CC13CCNCC3)C(=O)N1CCC[C@H](N1)C(=O)OCC(C)(C)C2 (some centres unmarked)
Reply | 10 to 100 nM

Ask | Ok, now `C=CC(=O)N1CC[C@H](C(=O)N(C)[C@H](C(=O)N[C@H]2Cc3cc(O)cc(c3)-c3ccc4c(c3)c(c(-c3ccnc5c3[C@@H](OC)CC5)n4CC)CC(C)(C)COC(=O)[C@@H]3CCCN(N3)C2=O)C(C)C)C1`
Reply | 10 to 100 nM

Ask | Ok, now `CCn1c(-c2cccnc2[C@H](C)OC)c2c3cc(ccc31)-c1csc(n1)C[C@H](NC(=O)[C@H](C(C)C)N(C)C(=O)[C@H]1CCN(C(=O)CNC)C1)C(=O)N1CCC[C@H](N1)C(=O)OCC(C)(C)C2`
Reply | 100 to 1000 nM

Ask | Ok, now `CCn1c(-c2cccnc2[C@H](C)OC)c2c3cc(ccc31)-c1cc(O)cc(c1)C[C@H](NC(=O)[C@H](C(C)C)N(C)C(=O)[C@H]1CCN[C@H]1C)C(=O)N1CCC[C@H](N1)C(=O)OCC(C)(C)C2`
Reply | 10 to 100 nM
